Listing: Kd of selected binders
test_system: T1, Human TREM2 extracellular domain (ECD), residues 19-131, C-terminally biotinylated, deglycosylated (human, UniProt Q9NZC2 19-131, C-terminally biotinylated; deglycosylated)
T1 construct: range 19-131; loaded on Superstreptavidin biosensors; also called triggering receptor expressed on myeloid cells 2; Human BLI (deglycosylated)
T1 sequence (looked up): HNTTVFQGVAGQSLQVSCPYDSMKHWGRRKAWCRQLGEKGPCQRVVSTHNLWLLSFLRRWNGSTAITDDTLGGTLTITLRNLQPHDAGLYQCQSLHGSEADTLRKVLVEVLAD
protocol_summary: BLI steady state, deglycosylated human TREM2 ECD on sensor
*1 amine or outer side, *2 acyl side, *3 side chain or, on linkers, in order; H or OH if unused. Bridges are numbered along the chain shown (N, C = ends). Where no end group is shown, it is not given here. [ ]: non-standard residue; d: D form. TATA = O=C(CC[*:1])N1CN(C(=O)CC[*:2])CN(C(=O)CC[*:3])C1; 1Nal = N[C@@H](Cc1cccc2ccccc12)C(=O)O; hPhe = N[C@@H](CCc1ccccc1)C(=O)O
Give just the numeric value; nM need not be written.

In the examples that follow, each entry is paired with its recorded Kd.
ACSEYCFWPFAHCA (linker 2-6-13 via TATA) [BCY18227]
3100
Ac-CSEYCF[1Nal]P[hPhe]YHC (linker 1-5-12 via TATA) [BCY19672]
2800

Turning now to a further record.
## Task Look up and report measured Kd for this entry: Ac-CSEYCFWPFY[dA]C (linker 1-5-12 via TATA) [BCY20094]
## Result 2530
